- TEST_SYSTEM: UniProtKB P08908
- Sequence (P08908 whole entry): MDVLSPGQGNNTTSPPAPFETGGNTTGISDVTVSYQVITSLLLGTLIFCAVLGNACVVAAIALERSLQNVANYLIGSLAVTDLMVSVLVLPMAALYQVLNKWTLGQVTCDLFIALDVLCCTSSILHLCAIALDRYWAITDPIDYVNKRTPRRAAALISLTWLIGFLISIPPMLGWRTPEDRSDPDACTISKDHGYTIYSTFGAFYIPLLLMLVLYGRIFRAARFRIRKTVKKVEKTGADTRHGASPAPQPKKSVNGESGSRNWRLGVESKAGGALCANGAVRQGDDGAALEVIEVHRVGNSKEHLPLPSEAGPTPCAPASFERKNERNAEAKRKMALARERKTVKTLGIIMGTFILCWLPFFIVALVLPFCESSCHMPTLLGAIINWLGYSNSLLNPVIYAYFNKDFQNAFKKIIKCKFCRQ
- ASSAY_COMMENT: Agonist activity at human 5HT1A receptor expressed in CHO cells by [35S]GTPgammaS binding assay
- Assay type: functional, cell-based
READOUT_KIND: Emax (%)
// units = %; emit number, no label

COMPOUND	TEST_SYSTEM	UNIT_DESCRIPTOR	Emax
O=C1NCc2ccc3c(c21)CC(N(CCCc1c[nH]c2ccc(F)cc12)C(=O)c1ccccc1)CO3 (racemic)	UniProtKB P08908	%	96
O=C1NCc2ccc3c(c21)CC(N(CCCCc1c[nH]c2ccc(F)cc12)CC1CC1)CO3 (racemic)	UniProtKB P08908	%	87
N#Cc1ccc2[nH]cc(CCCCN(CC3CC3)C3COc4ccc5c(c4C3)C(=O)NC5)c2c1 (racemic)	UniProtKB P08908	%	0
CCCN(CCCc1c[nH]c2ccc(F)cc12)C1COc2ccc3c(c2C1)C(=O)NCC3 (racemic)	UniProtKB P08908	%	100
O=C1NCCc2ccc3c(c21)CC(NCCCc1c[nH]c2ccc(F)cc12)CO3 (racemic)	UniProtKB P08908	%	87
CN(CCCc1c[nH]c2ccc(F)cc12)C1COc2ccc3c(c2C1)C(=O)NC3 (racemic)	UniProtKB P08908	%	80

--- query ---
For this compound ( CCN(CCCc1c[nH]c2ccc(F)cc12)C1COc2c(F)cc3c(c2C1)C(=O)NCC3 (racemic) ), measured Emax is 92
